# TEST_SYSTEM: A1PI (Homo sapiens, UniProt P01009)
# Construct: Human plasma is currently the only approved source of therapeutic AlPI
# Sequence (P01009 25-418): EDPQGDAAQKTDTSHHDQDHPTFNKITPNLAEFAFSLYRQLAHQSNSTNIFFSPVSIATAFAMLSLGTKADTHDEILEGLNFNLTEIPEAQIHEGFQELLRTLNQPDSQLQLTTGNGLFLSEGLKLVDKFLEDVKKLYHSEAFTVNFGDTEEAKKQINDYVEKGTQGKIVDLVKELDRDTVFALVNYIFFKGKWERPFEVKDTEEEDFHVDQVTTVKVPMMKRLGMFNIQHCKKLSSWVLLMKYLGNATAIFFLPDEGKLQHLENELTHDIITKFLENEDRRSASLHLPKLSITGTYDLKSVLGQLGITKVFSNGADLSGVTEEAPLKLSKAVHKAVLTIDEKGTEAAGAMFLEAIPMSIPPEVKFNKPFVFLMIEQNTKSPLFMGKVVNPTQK
# PROCEDURE_DETAILS: A1PI purification from 5 mg hSA + 1 mg A1PI on peptide column, A1PI mass balance
# Format: binding
# MEASUREMENT_SETUP: A1PI; 5 mg hSA + 1 mg A1PI, 20° C.; relative to total eluted
Ends that are not written are not given here.
Recorded Percent Eluted by Fraction, 3M NaCl for the following substances
Numeric answer only, unit % assumed.

Reference set (5 entries):
IIWLYK; 0
YKFRFW; 0
VIWLVR; 2
RAFWYI; 0
RYRIFI; 0

State its Percent Eluted by Fraction, 3M NaCl: `WIKWTK`
0

State its Percent Eluted by Fraction, 3M NaCl: `PYWIVR`
2

State its Percent Eluted by Fraction, 3M NaCl: `WKLWRW`
7

State its Percent Eluted by Fraction, 3M NaCl: `IWRKYS`
0

State its Percent Eluted by Fraction, 3M NaCl: `LIVHRW`
0

State its Percent Eluted by Fraction, 3M NaCl: `ARWYIH`
0

State its Percent Eluted by Fraction, 3M NaCl: `RFIYYT`
0

State its Percent Eluted by Fraction, 3M NaCl: `RLWRYG`
0
